src = patent US20220233602A1

Test system: hESC
Assay context: score by DAPI staining: 0 = high number, 3 = low number of pyknotic nuclei; RepSox 25 μM, LY2157299 10 μM, TEW-7197 10 μM, GW788388 10 ng/ml, SB525334 10 μM, SB431542 10 μM, SB431542+LDN 10 μM+10 μM, LY2109761 2 μM
Give measured Cell death for each item. Keep answers brief.
Give bare numbers.

// below: answered molecules
Could you tell me which Cell death is on file for `c1ccc(-c2nn3c(c2-c2ccnc4cc(OCCN5CCOCC5)ccc24)CCC3)nc1` ?
0

What about this molecule? `Cc1cccc(-c2[nH]c(C(C)(C)C)nc2-c2ccc3nccnc3c2)n1`
0

What about this molecule? `O=C(NC1CCOCC1)c1ccc(-c2cc(-c3cn[nH]c3-c3ccccn3)ccn2)cc1`
3

// next item, Cell death requested
Could you tell me which Cell death is on file for `Cc1cccc(-c2nn3c(c2-c2ccnc4ccc(C(N)=O)cc24)CCC3)n1` ?
3

---

Give measured No Side Population (OTX2 Neg) for each item. Keep answers brief.
Tested on: hESC
Assay context: score by OTX2 staining: 3 = no detection of OTX2 negative cells; evaluated only in conditions without NES negative cells; RepSox 25 μM, LY2157299 10 μM, TEW-7197 10 μM, SB431542+LDN 10 μM+10 μM, LY2109761 2 μM
Source text: The experimental protocol used for neural induction of hESC and subsequent generation and NSC line establishment can roughly be divided in three main stages—Neuroectoderm induction and NECS formation; NECS plating and rosette formation and finally NSC line establishment by replating the cells in expansion media. […] Cell death: Monitored by DAPI (4′,6-diamidino-2-phenylindole) staining. […] Rosette numbers: Monitored by DAPI, ZO1 and NES stainings. […]
Answers are plain numbers.

// below: answered molecules
Could you tell me which No Side Population (OTX2 Neg) is on file for `Cc1cccc(-c2[nH]c(CNc3ccccc3F)nc2-c2ccc3ncnn3c2)n1` ?
3

What about this molecule? `Cc1cccc(-c2nn3c(c2-c2ccnc4ccc(C(N)=O)cc24)CCC3)n1`
0

What about this molecule? `c1ccc(-c2nn3c(c2-c2ccnc4cc(OCCN5CCOCC5)ccc24)CCC3)nc1`
3

New cases:
Could you tell me which No Side Population (OTX2 Neg) is on file for `Cc1cccc(-c2n[nH]cc2-c2ccc3ncccc3n2)n1` ?
3

---

Tested on: hESC
Assay context: score by brightfield and DAPI: 3 = flat monolayer of cells after NECS attachment; RepSox 25 μM, LY2157299 10 μM, TEW-7197 10 μM, GW788388 10 ng/ml, SB525334 10 μM, SB431542 10 μM, SB431542+LDN 10 μM+10 μM, LY2109761 2 μM
Measured property: Monolayer formation
One number for each entry.

// below: answered compounds
Could you tell me which Monolayer formation is on file for `NC(=O)c1ccc(-c2nc(-c3ccc4c(c3)OCO4)c(-c3ccccn3)[nH]2)cc1` ?
2

What about this compound? `Cc1cccc(-c2nn3c(c2-c2ccnc4ccc(C(N)=O)cc24)CCC3)n1`
2

What about this compound? `c1ccc(-c2nn3c(c2-c2ccnc4cc(OCCN5CCOCC5)ccc24)CCC3)nc1`
0

For each entry beneath this line, provide reported Monolayer formation.
1. Cc1cccc(-c2[nH]c(C(C)(C)C)nc2-c2ccc3nccnc3c2)n1
2. O=C(NC1CCOCC1)c1ccc(-c2cc(-c3cn[nH]c3-c3ccccn3)ccn2)cc1
3. Cc1cccc(-c2n[nH]cc2-c2ccc3ncccc3n2)n1
4. Cc1cccc(-c2[nH]c(CNc3ccccc3F)nc2-c2ccc3ncnn3c2)n1

2
3
3
2
